The measured values listed here are drawn from patent US20250296971A1.

# system-tested: biotinylated extracellular domain of the human GIP receptor (bioGIPR) (human) (UniProt P48546)
# Sequence (P48546 24-138 limits assumed): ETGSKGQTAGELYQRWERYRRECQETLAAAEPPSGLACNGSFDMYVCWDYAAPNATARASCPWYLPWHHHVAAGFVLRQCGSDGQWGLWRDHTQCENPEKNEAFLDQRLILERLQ
# experiment: SPR single cycle kinetics, bioGIPR captured on chip; category A: pKD >9.0
*1 amine or outer side, *2 acyl side, *3 side chain or, on linkers, in order; H or OH if unused. [ ]: non-standard residue; d: D form. The star is where a group is joined. Ttds = 1,13-diamino-4,7,10-trioxatridecan-succinamic acid, NCCCOCCOCCOCCCNC(=O)CCC(=O)*; DOTA = O=C(O)CN1CCN(CC(=O)O)CCN(CC(=O)*)CCN(CC(=O)O)CC1; Trp(5-Cl) = N[C@@H](Cc1c[nH]c2ccc(Cl)cc12)C(=O)O; mXylylene = c1cc(C[*:1])cc(C[*:2])c1; Cysteamide = C(CS[*:3])N[*:1]; Api = NC1(C(=O)O)CCNCC1; Aib = CC(C)(N)C(=O)O
reported-property: pKD

binder	pKD
{DOTA-Ttds}-DW[Trp(5-Cl)]PE[dL]C[Aib]LI[Cysteamide] (linker (positions not given here) via mXylylene; not fully specified (bridges); printed as DOTA-Ttds-Asp-Trp-5Clw-Pro-Glu-leu-[Cys(3MeBn)-Aib-Leu-Ile-AET]) [DOTA-Ttds-Asp-Trp-5Clw-Pro-Glu-leu-[Cys(3MeBn)-Aib-Leu-Ile-AET]]	> 9 pkd

IN: Report pKD for {DOTA-Ttds}-DW[Trp(5-Cl)]PE[dL]C[Api](Ac)LI[Cysteamide] (linker (positions not given here) via mXylylene; not fully specified (bridges); printed as DOTA-Ttds-Asp-Trp-5Clw-Pro-Glu-leu-[Cys(3MeBn)-Apc(Ac)-Leu-Ile-AET]) [DOTA-Ttds-Asp-Trp-5Clw-Pro-Glu-leu-[Cys(3MeBn)-Apc(Ac)-Leu-Ile-AET]] please.
OUT: > 9 pkd
